Items are presented alongside their recorded EC50.
# Test system: NF-κB
# Measurement Protocol: NF-κB inflammation assay (PRINCESS NINA Instant Assay, A549-NF-κB-SEAP reporter cells)
# Assay type: cell-based
# Condition: A549-NF-κB-SEAP reporter cells stimulated with 2 ng/ml TNF-α; read-out: Biological activity (EC50, NF-κB inflammation assay)

Some compounds with known EC50 results, for comparison:
O=CN1CCC(c2nc(C(=O)Nc3nc4cc(C(=O)c5ccccc5)ccc4[nH]3)cs2)CC1 ... < 10 µM
Cc1cc2nnc(C(=O)N3CCC(c4nc(C(=O)Nc5nc6cc(C(=O)c7ccccc7)ccc6[nH]5)cs4)CC3)c(C)n2n1 ... < 10 µM

Here is the next item to consider.
Input N#Cc1ccnc(N2CCC(c3nc(C(=O)Nc4nc5ccc(C(=O)c6ccccc6)cc5[nH]4)cs3)CC2)c1 . Output EC50: 30 to 100 µM

====

# Test system: NF-κB
# Measurement Protocol: NF-κB inflammation assay (PRINCESS NINA Instant Assay, A549-NF-κB-SEAP reporter cells)
# Assay type: cell-based
# Condition: read-out: NF-κB reporter gene assay IC50
pIC50: −log10 of the molar value.
Measured Parameter: pIC50

Input O=C(c1ccccc1)c1ccc2nc(NC(=O)c3csc(C4CCN(c5ncnc6ccsc56)CC4)n3)[nH]c2c1 . Output pIC50: ~7.00

====

# Tested on: human PBMCs
# Measurement Protocol: Cytokine production of human PBMCs
# Assay type: cell-based
# Condition: Homo sapiens, PBMC, 48 h, PHA stimulation, 48 hours; read-out: INF-gamma secretion EC50
Measured Parameter: pEC50
Hey, just a heads up that pEC50 is the negative log base 10 of the concentration in molar.

Assay human PBMCs, sample O=C(c1ccccc1)c1ccc2nc(NC(=O)c3csc(C4CCN(c5ncnc6ccsc56)CC4)n3)[nH]c2c1 , pEC50 read: 5.05

====

# Test system: human PBMCs
# Measurement Protocol: Cytokine production of human PBMCs
# Assay type: cell-based
# Condition: Homo sapiens, PBMC, 48 h, PHA stimulation, 48 hours; read-out: TNF-alpha secretion EC50
Measured Parameter: pEC50
Hey, just a heads up that pEC50 is the negative log base 10 of the concentration in molar.

Input O=C(c1ccccc1)c1ccc2nc(NC(=O)c3csc(C4CCN(c5ncnc6ccsc56)CC4)n3)[nH]c2c1 . Output pEC50: 5.10
